Each entry below lists one item and its recorded Fold depletion in AML value.
# Test system: tet-on competent MLL/AF9+Nras AML
# EXPERIMENT_SUMMARY: Pooled negative selection RNAi screening (deep sequencing)
# Format: cell-based, mouse
# CONDITION_PARAMETERS: deep sequencing reads, On Dox compared to T0
# From the text: In addition to the analysis of single shRNAs for inhibitory effects in vitro and in vivo, the combination of tet-on competent cancer models and tet-regulatable shRNA expression vectors allowing for monitoring shRNA expression through fluorescent and other reporter genes (e.g. TRMPV and derivates) facilitates pooled shRNA negative selection screening (FIG. 37). […]
// return numeric value only (unit: Fold, not printed)

molecule="Mef2c.1872: shRNA, SEQ ID NO: 141 (nucleic acid) TGCTGTTGACAGTGAGCGCTGCCTCAGTGATACAGTATAATAGTGAAGCCACAGATGTATTATACTGTATCACTGAGGCAATGCCTACTGCCTCGGA" measurement_kind="Fold depletion in AML" unit_descriptor=Fold numeric_value=63.15
molecule="Nln.1429: shRNA, SEQ ID NO: 151 (nucleic acid) TGCTGTTGACAGTGAGCGAAAGGATAAAGCTACTGGAGAATAGTGAAGCCACAGATGTATTCTCCAGTAGCTTTATCCTTCTGCCTACTGCCTCGGA" measurement_kind="Fold depletion in AML" unit_descriptor=Fold numeric_value=8.03
molecule="L1cam.5255: shRNA, SEQ ID NO: 137 (nucleic acid) TGCTGTTGACAGTGAGCGCCAGAATTATAACAGGCAAATATAGTGAAGCCACAGATGTATATTTGCCTGTTATAATTCTGATGCCTACTGCCTCGGA" measurement_kind="Fold depletion in AML" unit_descriptor=Fold numeric_value=31.42

Okay, next one:
**Query** Please report the recorded Fold depletion in AML for Ptpn18.247: shRNA, SEQ ID NO: 170 (nucleic acid) TGCTGTTGACAGTGAGCGCCACGAACAAGAACCGCTACAATAGTGAAGCCACAGATGTATTGTAGCGGTTCTTGTTCGTGTTGCCTACTGCCTCGGA .
**Result** 8.13
